Experiment: Acute poisoning test on mice
Details: mouse, in vivo, iv, intravenously, female, three weeks
measured quantity: LD50 at 504 h (mg/kg)

>  <molecule>
CCCCCOC1(CO)OCC(O)C(O)C1O [Compound No. 4, n-pentyl-β-D-fructopyranoside]

>  <measurement>
930

$$$$

* * *

Assay: Acute poisoning test on mice
Settings: mouse, in vivo, sc, hypodermically, male, three weeks

>  <molecule>
CCCOC1(CO)OCC(O)C(O)C1O [Compound No. 7, n-propyl-α-L-sorbopyranoside]

>  <LD50 at 504 h>
> 5000 mg/kg

$$$$
>  <molecule>
CC(C)COC1(CO)OCC(O)C(O)C1O [Compound No. 10, isobutyl-α-L-sorbopyranoside]

>  <LD50 at 504 h>
~2000 mg/kg

$$$$
>  <molecule>
CCCCCOC1(CO)OCC(O)C(O)C1O [Compound No. 4, n-pentyl-β-D-fructopyranoside]

>  <LD50 at 504 h>
1020 mg/kg

$$$$

* * *

System: IgE antibodies
Experiment: Formation of homocytotropic antibodies in rats, PCA (passive cutaneous anaphylaxis) reaction
Assay type: in vivo, rats of wistar strain
Settings: Table 2, abdominal and oral administration, 5 days; serum 9 days after sensitization; control 169 (119-223)
Quick reference for PCA of rat: dilution of the serum which induced the minimum extravasted dye among some compounds
measured quantity: PCA of rat: dilution of the serum which induced the minimum extravasted dye

>  <compound>
CCCCCOC1(CO)OCC(O)C(O)C1O [Compound No. 4, n-pentyl-β-D-fructopyranoside]

>  <measurement>
51.9

$$$$
>  <compound>
CCCCOC1(CO)OCC(O)C(O)C1O [Compound No. 2, n-butyl-β-D-fructopyranoside]

>  <measurement>
84.4

$$$$
>  <compound>
CC(C)CCOC1(CO)OCC(O)C(O)C1O [Compound No. 5, isopentyl-β-D-fructopyranoside]

>  <measurement>
90.5

$$$$
>  <compound>
CCCCCCOC1(CO)OCC(O)C(O)C1O [Compound No. 6, n-hexyl-β-D-fructopyranoside]

>  <measurement>
147

$$$$
>  <compound>
CC(C)COC1(CO)OCC(O)C(O)C1O [Compound No. 3, isobutyl-β-D-fructopyranoside]

>  <measurement>
97.0

$$$$
>  <compound>
O=P1(N(CCCl)CCCl)NCCCO1 (stereo not drawn) [Cyclophosphamide, reference compound]

>  <measurement>
16.0

$$$$

* * *

Assay: Acute poisoning test on mice
Details: mouse, in vivo, iv, intravenously, male, three weeks

>  <molecule>
CCCOC1(CO)OCC(O)C(O)C1O [Compound No. 7, n-propyl-α-L-sorbopyranoside]

>  <LD50 at 504 h>
> 2000 mg/kg

$$$$
>  <molecule>
CC(C)COC1(CO)OCC(O)C(O)C1O [Compound No. 10, isobutyl-α-L-sorbopyranoside]

>  <LD50 at 504 h>
1000 to 2000 mg/kg

$$$$
>  <molecule>
CCCCCOC1(CO)OCC(O)C(O)C1O [Compound No. 4, n-pentyl-β-D-fructopyranoside]

>  <LD50 at 504 h>
760 mg/kg

$$$$

* * *

Experiment: Acute poisoning test on rats
Conditions: rat, in vivo, ip, abdominally, male, three weeks
measured quantity: LD50 at 504 h

>  <molecule>
CCCCCOC1(CO)OCC(O)C(O)C1O [Compound No. 4, n-pentyl-β-D-fructopyranoside]

>  <measurement>
> 2780 mg/kg

$$$$
>  <molecule>
CCCOC1(CO)OCC(O)C(O)C1O [Compound No. 7, n-propyl-α-L-sorbopyranoside]

>  <measurement>
> 5000 mg/kg

$$$$
>  <molecule>
CC(C)COC1(CO)OCC(O)C(O)C1O [Compound No. 10, isobutyl-α-L-sorbopyranoside]

>  <measurement>
~2000 mg/kg

$$$$

* * *

Assay: Acute poisoning test on rats
Settings: rat, in vivo, sc, hypodermically, male, three weeks
Quick reference for LD50 at 504 h among some compounds
measured quantity: LD50 at 504 h

>  <compound>
CCCOC1(CO)OCC(O)C(O)C1O [Compound No. 7, n-propyl-α-L-sorbopyranoside]

>  <measured quantity>
LD50 at 504 h

>  <measurement>
> 5000 mg/kg

$$$$
>  <compound>
CC(C)COC1(CO)OCC(O)C(O)C1O [Compound No. 10, isobutyl-α-L-sorbopyranoside]

>  <measured quantity>
LD50 at 504 h

>  <measurement>
> 5000 mg/kg

$$$$
>  <compound>
CCCCCOC1(CO)OCC(O)C(O)C1O [Compound No. 4, n-pentyl-β-D-fructopyranoside]

>  <measured quantity>
LD50 at 504 h

>  <measurement>
1500 mg/kg

$$$$

* * *

Test system: IgG and IgM
Experiment: Amount of antibodies formed in rats, PHA (phytohemaglutinin) reaction
Type: in vivo, rats of wistar strain
Details: Table 5 right half, hypodermic administration; serum 8 days after sensitization; control 3235.9 (2454.7-4265.8)
Method: Effects on the formation of homocytotropic antibodies in rats An experiment was carried out in accordance with the Tada and Okumura's method (J. Immunol., Vol. 106, p 1002, 1971). Groups each consisting of 8-9 rats of wistar strain were used in this experiment. […]
measured quantity: PHA of rat: dilution of the serum which induced the minimum hemaglutination

>  <compound>
CC(C)COC1(CO)OCC(O)C(O)C1O [Compound No. 10, isobutyl-α-L-sorbopyranoside]

>  <measurement>
5248.1 (3715.4-7413.1)

$$$$
>  <compound>
CC(C)CCOC1(CO)OCC(O)C(O)C1O [Compound No. 12, isopentyl-2-L-sorbopyranoside]

>  <measurement>
6025.6 (4897.8-7413.1)

$$$$
>  <compound>
CCCCCCOC1(CO)OCC(O)C(O)C1O [Compound No. 13, n-hexyl-α-L-sorbopyranoside]

>  <measurement>
4265.8 (2630.3-6918.3)

$$$$
>  <compound>
CCCCCOC1(CO)OCC(O)C(O)C1O [Compound No. 11, n-pentyl-α-L-sorbopyranoside]

>  <measurement>
3467.4 (2630.3-4570.8)

$$$$

* * *

Assay: Acute poisoning test on mice
Conditions: mouse, in vivo, ip, abdominally, female, three weeks

>  <molecule>
CCCCCOC1(CO)OCC(O)C(O)C1O [Compound No. 4, n-pentyl-β-D-fructopyranoside]

>  <value unit>
mg/kg

>  <LD50 at 504 h>
2360

$$$$
